- tested.system: Cytochrome P450 (CYP) 2D6 enzyme (Homo sapiens, UniProt P10635)
- Construct: using pooled male and female human liver microsomes; from tissue; host or cells: pooled male and female human liver microsomes
- Sequence (P10635 whole entry): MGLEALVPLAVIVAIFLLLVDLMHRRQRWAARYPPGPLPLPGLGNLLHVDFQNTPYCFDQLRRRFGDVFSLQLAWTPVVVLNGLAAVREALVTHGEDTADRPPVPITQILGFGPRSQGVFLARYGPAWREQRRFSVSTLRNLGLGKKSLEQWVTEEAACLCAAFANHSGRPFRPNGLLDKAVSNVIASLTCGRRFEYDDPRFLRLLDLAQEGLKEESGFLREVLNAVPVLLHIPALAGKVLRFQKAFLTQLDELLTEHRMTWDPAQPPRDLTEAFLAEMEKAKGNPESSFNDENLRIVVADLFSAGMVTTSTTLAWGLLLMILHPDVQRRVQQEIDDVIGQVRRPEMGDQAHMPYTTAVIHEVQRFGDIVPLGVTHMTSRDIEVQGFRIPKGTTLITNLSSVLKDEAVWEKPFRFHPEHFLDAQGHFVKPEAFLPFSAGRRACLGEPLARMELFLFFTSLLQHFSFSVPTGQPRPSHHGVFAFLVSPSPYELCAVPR
- assay.notes: Cytochrome P450 (CYP) 2D6 enzyme time dependent inhibition (TDI) assay
- Assay type: in vitro ADME
- condition.label: t = 30 min pre-incubation, human liver microsomes; read-out: CYP2D6 inhibition, IC50 (μM) t = 30 min
outcome.measure: IC50

Here's what some known entries look like.
> print(dat)
                                   compound  assay.result
1  Cc1ccnc2nc(-c3cncc(-c4ccc(F)c(F)c4)c3N3CC[C@](C)(N)C3)[nH]c12 [Compound 2-190]       > 10 µM
2  COc1cc(-c2cncc(-c3nc4nccc(C)c4[nH]3)c2N2CC[C@](C)(N)C2)ccc1F [Compound 2-189]       > 10 µM

Please look at the following compound next.
**Q:** Find the recorded IC50 belonging to Cc1cccc2[nH]c(-c3cncc(-c4cc(F)cc(C#N)c4)c3N3CC[C@H](N)C3)nc12 [Compound 2-34] and report it.
**A:** > 10 µM
